Recorded values, source patent US20260207450A1.

tested on: M. restricta; experiment: Disc-diffusion assay, additional perfumery materials in DMSO, M. restricta, 4 days; assay type: cell-based, Malassezia restricta; details: Malassezia restricta, 96 h; Table 20; 0.5% in DMSO, 4 days; read-out: Inhibition zone diameter (mm) on M. restricta
Measured zone of inhibition at 0.5 % accompanies every entry in the list below.
Outcome Measure: zone of inhibition at 0.5 % (mm)

compound=CC1=C(C=O)C(C)(C)CC=C1 experimental_value=7.2
compound=CCCCCCCCC=O experimental_value=7.3
compound="C=CC(C)CCCC(C)(C)O (racemic) [(+/−)-2,6-dimethyl-7-octen-2-ol]" experimental_value=7.5
compound=O=C1CCCCCCCCCCCC(=O)OCCO1 experimental_value=7.3
compound=CC(=CC=O)CCC(C)=C(C)C experimental_value=8.7
compound="C=C1CCCC(C)(C)C1C(=O)OC (racemic)" experimental_value=7.5
compound=C/C(C=O)=C\c1ccccc1 experimental_value=8.1
compound="CC(C)=CCC[C@@H](C)CC=O [(+)-(R)-3,7-dimethyl-6-octenal]" experimental_value=7.1
compound="Cc1ccc2c(c1)CC(C)(CO)C2 (racemic)" experimental_value=7
compound="CC(C=O)Cc1ccc(C(C)C)cc1 (racemic)" experimental_value=7.5
compound="CCCCCCCCC(C)C=O (racemic) [(+/−)-2-methyldecanal]" experimental_value=7.1
compound=CCCCCCCC=O experimental_value=7.5
compound="CC/C=C\\CCOC(=O)C(C)C [(Z)-3-hexenyl isobutyrate]" experimental_value=7.7
compound="CC(C)=CCCC(C)CCOCC=O (racemic)" experimental_value=9.7
compound="CC/C=C\\CCCCC=O [(Z)-6-nonenal]" experimental_value=7.2
compound="CCC(=CCC1CC=C(C)C1(C)C)CO (racemic)" experimental_value=7
